Entry source: ChEMBL document CHEMBL1157539

Test system: Plasmodium falciparum
Experiment: GSK_TCMDC: Inhibition of Plasmodium falciparum Dd2 in whole red blood cells, using parasite LDH activity as an index of growth. Test compounds present at 2uM
Assay type: functional
reportedProperty: Inhibition (%)
Write the number in % without appending the unit.

Q: Indicate the recorded Inhibition value for this compound: Cc1ccc(F)cc1-c1cc(N2CCCN(C(=O)c3ccc(Br)o3)CC2)ncn1
A: 91

Q: Complete the entry with Inhibition for O=C(O)C(F)(F)F.O=S(=O)(NCCN1CCCC1)c1ccc(-c2cccc(CNCc3ccc(F)cc3)c2)cc1F
A: 36

Q: Provide one value: measured Inhibition of CC(C)(C)C(C)(C)Cc1ccc(O)c(CN2CCN(c3ccccc3)CC2)c1
A: 98

Q: Please look at this compound and report its Inhibition: COc1ccccc1CNC(=O)CCn1c(=O)[nH]c2ccsc2c1=O
A: 75

Q: Give Inhibition for the following compound: O=C(O)C(F)(F)F.Oc1ccc(CCNc2nc(NCc3ccccc3-c3cccc(Cl)c3)nc(N3CCNCC3)n2)cc1
A: 11

Q: Quote Inhibition reported for CCn1cnc2c(N3CCCS3(=O)=O)cc(C(=O)N[C@@H](Cc3ccccc3)[C@H](O)CNC(C)(C)c3cccc(C(F)(F)F)c3)cc21 please.
A: 97

Q: Please give measured Inhibition of the following entry: CCCc1cc(NCC)nc(Nc2ccc(C)cc2)n1
A: 16

Q: Using known records, supply Inhibition for Oc1ccc(-c2nc(-c3ccc4oc5ccc(-c6[nH]c(-c7ccc(O)cc7)nc6-c6ccccc6)cc5c4c3)c(-c3ccccc3)[nH]2)cc1
A: 71

###

For each entry below, report its Inhibition value.
Test system: HepG2
Experiment: GSK_TCMDC: Percent inhibition of human HepG2 cell line. Test compounds present at 10uM.
Type: functional
# unit: % | format: bare number

Q: Return reported Inhibition. Input molecule: Cc1cc(O)c2c3c1C(=O)C=C1C3c3c(c(O)cc(O)c3C(=O)C1(C)C)C2=O (stereo not given)
A: 45

Q: Determine its reported Inhibition: Cc1ccc2nc(C)cc(N/N=C/c3ccc([N+](=O)[O-])cc3)c2c1
A: 10

Q: // fetch Inhibition given entry CC(=O)Nc1ccc(Nc2ncc([N+](=O)[O-])c(Nc3ccccc3C(N)=O)n2)cc1.Cl
A: 42

Q: Could you please provide reported Inhibition for CCn1c(=O)c(C(=O)Nc2cc(Cl)c(OC)cc2OC)nc2ccccc21 ? Thanks!
A: 19

Q: Identify measured Inhibition associated with CO/C(=C\C=C\c1cc2cc(Cl)c(Cl)cc2[nH]1)C(=O)NCCCCN1CCN(c2ccccc2OC)CC1
A: 55

###

So I've got a bunch of compounds here, and I need their Inhibition values.
Tested on: Plasmodium falciparum
Test: GSK_TCMDC: Inhibition of Plasmodium falciparum Dd2 in whole red blood cells, using parasite LDH activity as an index of growth. Test compounds present at 2uM
Assay type: functional
State just the number; it will be interpreted in %.

Q: Dear colleague, please send me the reported Inhibition for CN1CCN(CCCN(Cc2ccc(-c3ccc(CNC4CCCC4)cc3)cc2)C(=O)CCC2CCCC2)CC1.O=C(O)C(F)(F)F when you can.
A: 96

Q: Provide measured Inhibition value, entry: COc1cccc(C(NC(=O)c2ccccc2)c2ccc3cccnc3c2O)c1 (configuration not stated)
A: 41

Q: Look up and state reported Inhibition for CNC(=O)NC1CCN(Cc2c(-c3cccs3)nc3ccccc3c2C(=O)N[C@@H](C)C2CCCCC2)CC1
A: 97

Q: Give a short answer stating reported Inhibition for COc1cc(NC(=O)Nc2ccnc3ccccc23)cc(OC)c1.Cl .
A: 34

Q: Give Inhibition for CCOc1ccc2nc(N(CCCn3ccnc3)C(=O)C=Cc3cccs3)sc2c1.Cl
A: 97

Q: Name the recorded Inhibition of the item O=C(Nc1cccc(F)c1)N[C@H]1CCN(CCCCCNC(=O)C2CC2c2ccc(Cl)c(Cl)c2)C1 (some centres not stated) in your answer.
A: 1

Q: Consider the compound CCCCCCCCCn1c(NCc2cc(Cl)ccc2O)nc2ccccc21 and give its recorded Inhibition.
A: 92

Q: Give the value of Inhibition reported for the following: Br.CCCc1cc(C)ccc1OCCCON1C(N)=NC(N)=NC1(C)C
A: 97

Q: Supply measured Inhibition of COc1ccc2nccc(NCC3(O)CCC(NCc4ccc5c(n4)NC(=O)CS5)CC3)c2n1.Cl (configuration not stated) in your reply.
A: 23

Q: Identify the reported Inhibition for the following entry. CCN(CCNC(=O)Cn1c(C)cc2cc([N+](=O)[O-])ccc21)c1cccc(C)c1
A: 95

Q: Look up and report measured Inhibition for this entry: CCC/C=C/c1c(CNCCCNc2cc(=O)c3ccccc3[nH]2)sc(CC)c1Br.Cl
A: 71

Q: Identify Inhibition associated with the compound N#Cc1cccc(NC(=O)Nc2ccc(-c3csc(-c4nc5ccccc5[nH]4)c3)cc2)c1
A: 97

Q: Report Inhibition, nothing else, for this compound: Cc1cc(N[C@@H](Cc2ccccc2)C(=O)Nc2ccccc2)nc(NCCc2ccccc2)n1.O=C(O)C(F)(F)F
A: 87

Q: Provide Inhibition value for the following compound: Cc1cccc2nc(-c3ccc(-c4cccc(NC(=O)c5ccncc5)c4)cc3)[nH]c12
A: 8

Q: Quote Inhibition reported for CCN(CC)CC#Cc1ccc2[nH]c(C)c(Cl)c(=O)c2c1 please.
A: 95

Q: Using known records, supply Inhibition for FC(F)(F)c1ccc2[nH]ccc(=NN=Cc3ccccc3)c2c1
A: 2

Q: Assign Inhibition to the following record: O=C(Nc1cccc(CN2CCCN(Cc3ccc(O)cc3)CC2)c1)c1ccc(-c2ccccc2)cc1.O=C(O)C(F)(F)F
A: 93

Q: Supply Inhibition value. Item: N=C(N)NC(=O)Nc1cc(Cl)c(Br)c(Cl)c1
A: 100

Q: Report Inhibition for CNCCNCc1ccc(-c2ccc(-c3nc4cc(F)ccc4[nH]3)s2)cc1.O=C(O)C(F)(F)F
A: 55

Q: # return recorded Inhibition for input Cn1cncc1CCCN(Cc1ccc(-c2ccc(C(F)(F)F)cc2)cc1)C(=O)Cn1c(CCc2cccc(F)c2F)cc(=O)c2cccnc21
A: 59

Q: For the compound CCNc1cc(C(=O)N[C@@H](Cc2ccccc2)[C@H](O)CNC(C)C)cc(N2CC(c3ccccc3)CCS2(=O)=O)c1 (some centres not stated) , give its measured Inhibition value.
A: 99

Q: Provide one value: measured Inhibition of Cc1cccc(CN2CCCN(Cc3ccc(C(=O)Nc4ccc(C)c(F)c4)cc3)CC2)c1.O=C(O)C(F)(F)F
A: 3

Q: Tell us which Inhibition value is on record for Nc1nc(N)c2c(n1)CCC(c1ccccc1)C2 (configuration not stated)
A: 0

Q: Quickly give me recorded Inhibition for COc1c(C2CCN(CCCCNC(=O)c3ccc(-c4ccc(Cl)cc4)cc3)CC2)ccc2c1C(C)(C)CCC2(C)C
A: 42

Q: Report Inhibition for CCCCCCCC1=NN2C(=N)C(=Cc3cc(Br)c(OCc4ccc(F)cc4)c(OCC)c3)C(=O)N=C2S1
A: 0

Q: Please report the measured Inhibition for CCN(CC)CCCC(C)Nc1c2ccccc2nc2c1ccc1ccccc12.Cl (configuration not stated)
A: 34

Q: Specify measured Inhibition for C=CCNS(=O)(=O)c1ccc(NC(=O)C(C)Oc2ccc([N+](=O)[O-])cc2)cc1 (configuration not stated) .
A: 100

Q: Give a short answer stating reported Inhibition for CN1CCN(c2ccnc3ccc(NC(=O)Nc4ccc5c(c4)CCCC5=O)cc23)CC1 .
A: 90

Q: Let me know recorded Inhibition for CCOC(=O)c1c(-c2ccccc2)c(C(=O)OCC)n2ccccc12 , thanks.
A: 70

Q: Return Inhibition for the following compound: Oc1cc(Nc2ccnc3cc(-c4ccc(CN5CCCCC5)o4)c(Cl)cc23)c(Cl)cc1F
A: 64

Q: Look up Inhibition of COc1cc(C(=O)NCCCN2CCN(c3cc(Cl)ccc3OC)CC2)ccc1-c1nc2cc(Cl)c(Cl)cc2[nH]1 and report it.
A: 99

Q: Supply measured Inhibition of Cc1cc2nc(-c3ccc(C(=O)NCc4cccc(F)c4)cc3)[nH]c2cc1C in your reply.
A: 6

###

Test system: Plasmodium falciparum
Test: GSK_TCMDC: Inhibition of Plasmodium falciparum Dd2 in whole red blood cells, using parasite LDH activity as an index of growth. Test compounds present at 2uM
Type: functional
For each entry below, report its Inhibition value.

Q: Specify the recorded Inhibition for COc1ccc2ncc(F)c(CCN3CC(O)C(CNCc4ccc5c(c4)OCCO5)C3)c2n1.Cl (stereo unspecified) , system: Plasmodium falciparum.
A: 35%

Q: For Plasmodium falciparum, give the measured Inhibition of the entry COc1ccc(C2CC(=O)C3=C(C2)NC(C)=C(C(=O)OC2CCCC2)C3c2cccc(O)c2)cc1OC (stereo unspecified)
A: 98%

Q: Using Plasmodium falciparum as the test system, report measured Inhibition of CNC(=O)c1ccc2nc(-c3ccc(-c4ccccc4)cc3)n(CC3CCN(CC4CCCC4)CC3)c2c1.O=C(O)C(F)(F)F .
A: 36%

Q: Write Inhibition of CNc1ccc(CNCc2ccc(-c3ccc(-c4nc5cccc(C)c5[nH]4)s3)cc2)cc1.O=C(O)C(F)(F)F ; system used: Plasmodium falciparum
A: 94%

Q: System Plasmodium falciparum. Read-out Inhibition. Item N=C(N)Nc1ccc(C(=O)O)c(O)c1 . Report value.
A: 1%

Q: Specify Inhibition for Cc1cccc2nc(-c3cccc(-c4cccc(CNC(C)C)c4)c3)[nH]c12.O=C(O)C(F)(F)F , system Plasmodium falciparum.
A: 98%

Q: Using Plasmodium falciparum as the test system, report measured Inhibition of COc1cc2nc(SCC(C)C)n(CCCn3ccnc3)c(=N)c2cc1OC .
A: 78%

Q: # assay system Plasmodium falciparum: give Inhibition of Oc1cc(NCCCNC2CCc3c(Cl)cc(Cl)cc32)nc2ccccc12 (stereo unspecified)
A: 29%

Q: Give the observed Inhibition of CC(=O)c1cccc2[nH]c(C(=O)NC3CCC(CCN4CCc5ccc(C#N)cc5C4)CC3)cc12.Cl (stereo unspecified) for Plasmodium falciparum.
A: 0%

Q: Jot down Inhibition (Plasmodium falciparum) of COc1ccc(C23Oc4cc(OC)cc(OC)c4C2(O)C2(CC3c3ccccc3)SCCCS2)cc1 (stereo unspecified) .
A: 97%

Q: Please look at CC(C)c1ccc(NC(=O)c2ccc(C(=O)NC3CCN(CC4CCCCC4)CC3)cc2)cc1.O=C(O)C(F)(F)F and tell me its recorded Inhibition on Plasmodium falciparum.
A: 5%
